ASSAY_METRIC: EC50 (nM)
Only the number, expressed in nM, is required.

GET /values?item= CCCC(C)COc1ccc([C@H](CN)NC(=O)[C@@H](C)c2ccccc2)cc1 (stereo partly specified) &system= G protein-coupled receptor 88 (Homo sapiens, UniProt Q9GZN0) returns EC50: 304

The measurements presented in this section are drawn from ChEMBL document CHEMBL5236657.
